// provenance: the RNAGym collection of RNA variant scans (doi:10.7554/elife.90254)

Reported self-cleavage values follow for various variants
B1: LINE1-full (parent)
chain: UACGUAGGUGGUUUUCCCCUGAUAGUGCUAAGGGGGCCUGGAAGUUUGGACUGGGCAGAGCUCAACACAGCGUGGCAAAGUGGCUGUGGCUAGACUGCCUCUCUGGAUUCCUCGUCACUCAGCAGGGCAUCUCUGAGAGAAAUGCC

- Variants of: B1
- measurement-protocol: self-cleavage, relative activity (ratio to wild type); higher = more cleavage; in vitro, sequencing; the parent is a self-cleaving ribozyme
quantity: self-cleavage

residue-change | quantity | number
G4U G80C | self-cleavage | 1.07
C116U U134C | self-cleavage | 1.11
A77G U119G | self-cleavage | 1.39
U47C A77G | self-cleavage | 2.3
U29C U47A | self-cleavage | 1.11
U13A U143A | self-cleavage | 0.84
U29C C84G | self-cleavage | 0.14
U15A U62C | self-cleavage | 0
U26C U62A | self-cleavage | 0.02
A50G U81C | self-cleavage | 0.7
U1C U12A | self-cleavage | 0.95
U81A C133U | self-cleavage | 1.95
C98A C101U | self-cleavage | 0.09
U100A U134A | self-cleavage | 1.02
A121U C131U | self-cleavage | 0.58
G7A C18U | self-cleavage | 1.59
U12C U96C | self-cleavage | 0.19
G55U U132C | self-cleavage | 0.16
U73G U115A | self-cleavage | 1.12
C19U U23A | self-cleavage | 1.1
C17U U112C | self-cleavage | 1.49
A77G U119A | self-cleavage | 2.04
G80A U81C | self-cleavage | 1.98
G32A U100A | self-cleavage | 0.74
A31U A59U | self-cleavage | 0.39
U108C U143C | self-cleavage | 1.75
U29C G44C | self-cleavage | 1.82
A30U A43C | self-cleavage | 1.57
U14C A121G | self-cleavage | 1.3
A107G U108C | self-cleavage | 1.42
U52G U102C | self-cleavage | 1.87
A30G C123A | self-cleavage | 1
U115A G137A | self-cleavage | 1.81
G82A A140G | self-cleavage | 0.93
G58U U132C | self-cleavage | 0.01
U29C U108C | self-cleavage | 1.27
A31G G135A | self-cleavage | 1.09
U100C G127C | self-cleavage | 2.48
U15C U143A | self-cleavage | 1.55
A67C A117C | self-cleavage | 0.03
U20G U46C | self-cleavage | 2.3
U109A G126A | self-cleavage | 1.34
C71A A117G | self-cleavage | 0.15
U23A | self-cleavage | 1.3
A67C U102C | self-cleavage | 0.04
A30G U115A | self-cleavage | 1.17
U20C A142U | self-cleavage | 2.2
U115A U143A | self-cleavage | 1.36
U26C C101A | self-cleavage | 0.85
U52A C128U | self-cleavage | 1.38
C95U A129G | self-cleavage | 0.19
A24G U85G | self-cleavage | 0.1
G60A U96C | self-cleavage | 0.01
A69G C98U | self-cleavage | 0.04
G4U U130A | self-cleavage | 1.16
U62A U81G | self-cleavage | 0.02
C61A A69U | self-cleavage | 0.02
A57U A121U | self-cleavage | 0.12
U81A A117G | self-cleavage | 2.29
U9G A31C | self-cleavage | 1.72
U115C A117G | self-cleavage | 1.4
U109A A117U | self-cleavage | 1.51
U15C C95U | self-cleavage | 0.28
C17U A138C | self-cleavage | 1.12
G10A U23C | self-cleavage | 1.49
A50U U81A | self-cleavage | 1.1
